# MEASURED_ON: EGFR (Homo sapiens, UniProt P00533)
# Construct: Kinases are expressed as either kinase domains or full length constructs; made in house
# Sequence (P00533 25-1210, species assumed): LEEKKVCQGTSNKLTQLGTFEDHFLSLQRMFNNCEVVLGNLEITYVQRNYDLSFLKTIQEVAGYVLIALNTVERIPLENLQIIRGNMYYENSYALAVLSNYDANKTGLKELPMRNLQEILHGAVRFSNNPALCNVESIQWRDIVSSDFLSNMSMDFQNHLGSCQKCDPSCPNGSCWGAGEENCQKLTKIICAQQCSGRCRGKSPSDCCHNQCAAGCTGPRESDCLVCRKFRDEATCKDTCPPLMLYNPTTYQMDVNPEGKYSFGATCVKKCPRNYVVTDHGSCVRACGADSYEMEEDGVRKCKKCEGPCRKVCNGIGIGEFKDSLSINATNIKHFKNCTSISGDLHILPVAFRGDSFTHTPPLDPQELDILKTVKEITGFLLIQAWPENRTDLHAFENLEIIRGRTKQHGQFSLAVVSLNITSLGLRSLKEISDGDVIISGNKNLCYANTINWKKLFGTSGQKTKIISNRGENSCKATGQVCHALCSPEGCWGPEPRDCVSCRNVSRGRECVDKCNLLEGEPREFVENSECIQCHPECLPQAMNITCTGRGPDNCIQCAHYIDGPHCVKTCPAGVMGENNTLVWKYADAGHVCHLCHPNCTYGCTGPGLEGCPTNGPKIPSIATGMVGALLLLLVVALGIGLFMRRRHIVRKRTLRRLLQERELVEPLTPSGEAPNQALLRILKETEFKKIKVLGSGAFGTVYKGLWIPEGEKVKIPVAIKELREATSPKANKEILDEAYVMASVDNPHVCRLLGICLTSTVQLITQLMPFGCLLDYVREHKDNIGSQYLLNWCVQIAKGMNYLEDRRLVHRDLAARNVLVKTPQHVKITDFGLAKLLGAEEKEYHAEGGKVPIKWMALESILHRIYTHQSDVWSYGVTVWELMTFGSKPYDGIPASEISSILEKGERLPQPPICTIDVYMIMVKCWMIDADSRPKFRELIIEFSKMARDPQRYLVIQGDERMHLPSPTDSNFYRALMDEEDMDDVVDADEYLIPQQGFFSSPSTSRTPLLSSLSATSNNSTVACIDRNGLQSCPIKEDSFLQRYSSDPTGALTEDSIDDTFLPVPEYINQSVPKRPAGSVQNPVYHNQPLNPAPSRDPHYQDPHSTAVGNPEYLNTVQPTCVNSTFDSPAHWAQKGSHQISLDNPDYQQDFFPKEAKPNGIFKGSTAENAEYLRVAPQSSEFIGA
# TEST_NAME: Kinase inhibition assay (33P transfer), EGFR
# Format: biochemical
# TEST_CONTEXT: Table 2, class symbols A-E; read-out: EGFR-1
REPORTED_METRIC: IC50

COMPOUND	TEST_VALUE
FC(F)(F)Oc1ccc(Nc2ncnc(Nc3ccc4c(cnn4Cc4ccccc4)c3)n2)cc1 [Compound 906]	0.838 to 5.03 µM

[in] # get_value(readout='IC50', item= COc1ccc(Nc2ncnc(N(C)c3ccc4c(cnn4Cc4ccccc4)c3)n2)cc1OC [Compound 669] )
[out] < 0.856 µM

[in] Entry CN(c1cccc(Cl)c1)c1ncnc(Nc2ccc3c(cnn3C)c2)n1 [Compound 674] please
[out] < 1.09 µM

[in] Entry Fc1ccc(CNc2ncccc2-c2ncnc(Nc3ccc(N4CCOCC4)cc3)n2)cc1 [Compound 1106] please
[out] > 9.84 µM

[in] Entry O=C(O)Cc1cccc(Nc2ncnc(-c3cccnc3NCc3ccccc3)n2)c1 [Compound 1099] please
[out] < 0.97 µM

[in] Entry COc1ccc(Nc2ncnc(N(C)c3ccc(Cl)cc3)n2)cc1OC [Compound 795] please
[out] < 1.08 µM

[in] Entry COc1ccc(Nc2ncnc(N(C)c3ccc([N+](=O)[O-])cc3)n2)cc1OC [Compound 862] please
[out] 1.05 to 6.28 µM

[in] Entry c1ccc(CNc2ncccc2-c2ncnc(Nc3ccc(N4CCOCC4)cc3)n2)cc1 [Compound 1105] please
[out] > 10.2 µM

[in] Entry CCOC(=O)c1cccc(Nc2ncnc(Nc3cc(-c4ccc(C(=O)OC)cc4)n[nH]3)n2)c1 [Compound 813] please
[out] > 9.79 µM

[in] Entry COc1ccc(Nc2ncnc(NCc3cccc(Cl)c3)n2)cc1OC [Compound 792] please
[out] 1.08 to 6.45 µM

[in] Entry COc1cc(Nc2ncnc(-n3ccnc3Cl)n2)cc(OC)c1OC [Compound 1071] please
[out] 1.1 to 6.62 µM

[in] Entry Fc1ccc(CNc2ncccc2-c2ncnc(Nc3cccc(Cn4ccnc4)c3)n2)cc1 [Compound 1109] please
[out] 0.884 to 5.3 µM

[in] Entry Fc1cccc(CNc2nc3ccccc3n2-c2ncnc(Nc3cccc(Cn4ccnn4)c3)n2)c1 [Compound 964] please
[out] 0.812 to 4.87 µM

[in] Entry CCOc1ccc(Nc2ncnc(Nc3cc(-c4ccc(C(=O)OC)cc4)n[nH]3)n2)cc1 [Compound 879] please
[out] 0.927 to 5.56 µM

[in] Entry CN(c1cccc(Cl)c1)c1ncnc(Nc2ccc3nn(Cc4ccccc4)cc3c2)n1 [Compound 673] please
[out] < 0.905 µM

[in] Entry COc1cc(Nc2ncnc(-c3cccnc3NC(C)c3cccc4ccccc34)n2)cc(OC)c1OC (stereo not shown) [Compound 845] please
[out] > 8.85 µM

###

# MEASURED_ON: Zap-70 (Homo sapiens)
# Construct: Kinases are expressed as either kinase domains or full length constructs; made in house
# Sequence (P43403 whole entry, species assumed, the tested form may be a part): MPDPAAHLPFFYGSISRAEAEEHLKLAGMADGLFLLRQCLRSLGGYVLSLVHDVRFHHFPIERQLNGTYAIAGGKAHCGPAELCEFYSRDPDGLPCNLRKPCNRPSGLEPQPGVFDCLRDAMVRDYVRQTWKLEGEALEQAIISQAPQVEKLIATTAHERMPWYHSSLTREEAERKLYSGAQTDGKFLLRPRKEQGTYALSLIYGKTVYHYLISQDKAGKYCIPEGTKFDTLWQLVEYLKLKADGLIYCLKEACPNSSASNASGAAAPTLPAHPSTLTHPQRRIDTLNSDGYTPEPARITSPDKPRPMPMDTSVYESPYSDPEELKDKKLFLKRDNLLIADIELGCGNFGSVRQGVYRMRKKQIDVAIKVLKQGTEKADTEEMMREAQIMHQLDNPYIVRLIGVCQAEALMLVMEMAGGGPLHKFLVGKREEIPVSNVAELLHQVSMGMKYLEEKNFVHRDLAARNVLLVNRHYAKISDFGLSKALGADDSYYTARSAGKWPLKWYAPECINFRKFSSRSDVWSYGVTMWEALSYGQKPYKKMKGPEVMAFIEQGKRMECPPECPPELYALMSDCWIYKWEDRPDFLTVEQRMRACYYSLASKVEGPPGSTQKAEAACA
# TEST_NAME: Kinase inhibition assay (33P transfer), Zap-70
# Assay type: biochemical
# TEST_CONTEXT: read-out: Zap-1
# From the text: The inhibitor compounds described herein are screened in the following manner. […] Kinases are expressed as either kinase domains or full length constructs fused to glutathione S-transferase (GST) or polyHistidine tagged fusion proteins in either E. colior Baculovirus-High Five expression systems. […]
REPORTED_METRIC: IC50

COMPOUND_STRING	MEASURED_ON	TEST_VALUE
COc1cc(Nc2ncnc(-n3c(N[C@H](CO)c4ccccc4)nc4ccccc43)n2)cc(OC)c1OC	Zap-70 (Homo sapiens)	> 8.76 µM
COc1cc(Nc2ncnc(-n3c(NCCCc4ccccc4)nc4ccccc43)n2)cc(OC)c1OC	Zap-70 (Homo sapiens)	> 8.8 µM
O=c1[nH]c2ccccc2n1-c1ncnc(Nc2cccc3ccccc23)n1	Zap-70 (Homo sapiens)	> 12.7 µM

[in] # get_value(readout='IC50', item= COC(=O)Cc1cccc(Nc2ncnc(Nc3ccc(C)c(O)c3)n2)c1 )
[out] > 12.3 µM

[in] Entry COc1ccc(CNc2nc3ccccc3n2-c2ncnc(Nc3cccc(CC(=O)O)c3)n2)cc1 please
[out] > 9.35 µM

[in] Entry COC(=O)c1sccc1Nc1ncnc(N2CCCc3cc(C)ccc32)n1 please
[out] > 11.8 µM
